Test: Cytotoxicity assay (trypan blue exclusion, propidium iodide)
Format: cell-based, human
Conditions: human; SupT1 cells, Table 6, unit inferred; read-out: CC50
Property: CC50 (µg/mL)

1. C=C1CN(S(=O)(=O)c2ccc(C)cc2)CCCN(CC2CCCCC2)CCCN(S(=O)(=O)c2cccc3c(N(C)C)cccc23)C1 [KKD016]
27.4

---

Tested on: HHV-7 (KHR strain)
Assay: Anti-HHV-7 assay (HHV-7 antigen expression, flow cytometry, day 12)
Format: cell-based
Conditions: PBMC, CD8+ depleted PBMC; read-out: IC50 against HHV-7
Property: IC50 (µM)

1) C=C1CN(S(=O)(=O)c2ccc(C)cc2)CCCN(Cc2ccccc2)CCCN(S(=O)(=O)c2ccc(C)cc2)C1
0.9

---

Molecular target: CD4 (Homo sapiens)
Assay: CD4 down-modulation, flow cytometry with FITC-conjugated anti-CD4 (SK3) mAb, SupT1 cells
Type: cell-based
Set-up: To study the effect of the CADA derivatives on surface CD4 antigen expression, MT-4 and SupT1 cells were incubated; endogenous in cells; host or cells: MT-4, SupT1, PBMC
Conditions: day 4, read-out: IC50 CD4 (50% inhibition of extracellular CD4 expression) (converted)
Measured IC50 values are reported for all entries that follow.
Property: IC50

1) C=C1CN(S(=O)(=O)c2ccc(C)cc2)CCCN(CC2CCCCC2)CCCN(S(=O)(=O)c2ccc(C)cc2)C1
425 nM
2) C=C1CN(S(=O)(=O)c2ccc(C)cc2)CCCN(Cc2ccccn2)CCCN(S(=O)(=O)c2ccc(C)cc2)C1
> 85800 nM
3) Cc1ccc(S(=O)(=O)N2CCCN(Cc3ccccc3)CCCN(S(=O)(=O)c3ccc(C)cc3)CC(=O)C2)cc1
> 85600 nM
4) C=C1CN(S(=O)(=O)c2ccc(C)cc2)CCCN(Cc2ccncc2)CCCN(S(=O)(=O)c2ccc(C)cc2)C1
12400 nM
5) C=C1CN(S(=O)(=O)c2ccc(C)cc2)CCCN(C(=O)OCCC)CCCN(S(=O)(=O)c2ccc(C)cc2)C1
3270 nM
6) Cc1ccc(S(=O)(=O)N2CCCN(Cc3ccccc3)CCCN(S(=O)(=O)c3ccc(C)cc3)CC(CCl)C2)cc1
2410 nM
7) C=C1CN(S(=O)(=O)c2ccc(C)cc2)CCCN(CC(C)CC)CCCN(S(=O)(=O)c2ccc(C)cc2)C1 (stereo not shown)
1230 nM

---

Experiment: Cytotoxicity assay (trypan blue exclusion, propidium iodide)
Assay type: cell-based, human
Conditions: human, SupT1 cells; read-out: CC50 (50% cytotoxic concentration)
Property: CC50 (µg/mL)

1) C=C1CN(S(=O)(=O)c2ccc(C)cc2)CCCN(CCC(C)C)CCCN(S(=O)(=O)c2ccc(C)cc2)C1
8.4
2) C=C1CN(S(=O)(=O)c2ccc(C)cc2)CCCN(C(C)C)CCCN(S(=O)(=O)c2ccc(C)cc2)C1
23
3) Cc1ccc(S(=O)(=O)N2CCCN(Cc3ccccc3)CCCN(S(=O)(=O)c3ccc(C)cc3)CCC2)cc1
32.2
4) C=C1CN(S(=O)(=O)c2ccc(C)cc2)CCCN(CCC)CCCN(S(=O)(=O)c2ccc(C)cc2)C1
22.2
5) C=C1CN(S(=O)(=O)c2ccc(C)cc2)CCCN(CC(C)CC)CCCN(S(=O)(=O)c2ccc(C)cc2)C1 (stereo not shown)
24
6) C=C1CN(S(=O)(=O)c2ccc(C)cc2)CCCN(C2CCCC2)CCCN(S(=O)(=O)c2ccc(C)cc2)C1
20.5
7) C=C1CN(S(=O)(=O)c2ccc(C)cc2)CCCN(CC2CC=CCC2)CCCN(S(=O)(=O)c2ccc(C)cc2)C1 (stereo not shown)
28.9
8) C=C1CN(S(=O)(=O)c2ccc(C)cc2)CCCN(Cc2ccc[nH]2)CCCN(S(=O)(=O)c2ccc(C)cc2)C1
21.7
9) C=C1CN(S(=O)(=O)c2ccc(C)cc2)CCCN(CC2CC2)CCCN(S(=O)(=O)c2ccc(C)cc2)C1
21.9
10) C=C1CN(S(=O)(=O)c2ccc(C)cc2)CCCN(C(=O)OCCC)CCCN(S(=O)(=O)c2ccc(C)cc2)C1
32.5
11) C=C1CN(S(=O)(=O)c2ccc(C)cc2)CCCN(CC2CCCCC2)CCCN(S(=O)(=O)c2ccc(C)cc2)C1
28.1

---

System: HIV-1 strain IIIB
Assay: Anti-HIV-1 assay (p24 Ag ELISA)
Assay type: cell-based
Conditions: Human immunodeficiency virus 1, IIIB, SUP-T1; SupT1 cells; read-out: IC50 against HIV-1 IIIB
pIC50: −log10 of the molar value.
Property: pIC50

1. C=C1CN(S(=O)(=O)c2ccc(C)cc2)CCCN(Cc2ccccc2)CCCN(S(=O)(=O)c2ccc(C)cc2)C1
6.05

---

Experiment: Cytotoxic concentration (Example 2)
Type: cell-based
Details: human, MT-4 cells; read-out: CC50
Property: CC50 (nM)

1) CCCCCCCCCCCCCC(=O)O[C@@H]1[C@@H](C)[C@@]2(O)[C@@H](C=C(CO)C[C@]3(O)C(=O)C(C)=C[C@@H]23)[C@@H]2C(C)(C)[C@]12OC(C)=O [PMA, Phorbol myristate acetate, reference compound]
2.1

---

Biological target: CD4 (Homo sapiens)
Assay: CD4 down-modulation, flow cytometry with FITC-conjugated anti-CD4 (SK3) mAb, MT-4 cells
Format: cell-based
Set-up: To study the effect of the CADA derivatives on surface CD4 antigen expression, MT-4 and SupT1 cells were incubated; endogenous in cells; host or cells: MT-4, SupT1, PBMC
Details: compared to CADA; MT-4 cells (stated for some compounds)
Reported values of CD4 down-modulating activity, fold less active than CADA for individual entries
Property: CD4 down-modulating activity, fold less active than CADA (fold)

1) Cc1ccc(S(=O)(=O)N2CCCN(Cc3ccccc3)CCCN(S(=O)(=O)c3ccc(C)cc3)CCC2)cc1
20
2) C=C1CN(S(=O)(=O)c2ccc(C)cc2)CCCN(Cc2cccnc2)CCCN(S(=O)(=O)c2ccc(C)cc2)C1
7
3) C=C1CN(S(=O)(=O)c2ccc(C)cc2)CCCN(Cc2ccncc2)CCCN(S(=O)(=O)c2ccc(C)cc2)C1
9
4) Cc1ccc(S(=O)(=O)N2CCCN(Cc3ccccc3)CCCN(S(=O)(=O)c3ccc(C)cc3)CC(CCl)C2)cc1
3
5) C=C1CN(S(=O)(=O)c2ccc(Br)cc2)CCCN(Cc2ccccc2)CCCN(S(=O)(=O)c2ccc(Br)cc2)C1
4
6) C=C1CN(S(=O)(=O)c2ccc(C)cc2)CCCN(Cc2ccc[nH]2)CCCN(S(=O)(=O)c2ccc(C)cc2)C1
10
7) Cc1ccc(S(=O)(=O)N2CCCN(Cc3ccccc3)CCCN(S(=O)(=O)c3ccc(C)cc3)CC(CO)C2)cc1
6
8) C=C1CN(S(=O)(=O)c2ccc(C)cc2)CCCN(C(C)C)CCCN(S(=O)(=O)c2ccc(C)cc2)C1
17

---

Assay: Cytotoxicity assay (trypan blue exclusion, propidium iodide)
Type: cell-based, human
Details: human, MT-4 cells; read-out: CC50 (50% cytotoxic concentration)
Consider the following compounds and their measured CC50 readings.
Property: CC50 (µg/mL)

1) C=C1CN(S(=O)(=O)c2ccc(C)cc2)CCCN(CC2CC2)CCCN(S(=O)(=O)c2ccc(C)cc2)C1 [QJ041]
18.6
2) C=C1CN(S(=O)(=O)c2ccc(C)cc2)CCCN(Cc2ccccc2)CCCN(S(=O)(=O)c2ccc(C)cc2)C1 [CADA]
23.6
3) Cc1ccc(S(=O)(=O)N2CCCN(Cc3ccccc3)CCCN(S(=O)(=O)c3ccc(C)cc3)CCC2)cc1 [MFS-SC001]
23.1

---

Biological target: CD4 (Homo sapiens, UniProt P01730)
Test: CD4 down-modulation, flow cytometry with FITC-conjugated anti-CD4 (SK3) mAb, MT-4 cells
Assay type: cell-based
Parameters: To study the effect of the CADA derivatives on surface CD4 antigen expression, MT-4 and SupT1 cells were incubated; endogenous in cells; host or cells: MT-4, SupT1, PBMC
Settings: MT-4 cells, day 3; read-out: IC50 CD4 (50% inhibition of extracellular CD4 expression) (converted)
Property: IC50 (µM)

1) C=C1CN(S(=O)(=O)c2ccc(C)cc2)CCCN(C(=O)OCCC)CCCN(S(=O)(=O)c2ccc(C)cc2)C1
2.06
2) C=C1CN(S(=O)(=O)c2ccc(C)cc2)CCCN(C(=O)OCC)CCCN(S(=O)(=O)c2ccc(C)cc2)C1
11.5
3) C=C1CN(S(=O)(=O)c2ccc(C)cc2)CCCN(Cc2ccncc2)CCCN(S(=O)(=O)c2ccc(C)cc2)C1
4.41

---

System: HIV-1 strain RF
Test: Anti-HIV-1 assay (p24 Ag ELISA)
Assay type: cell-based
Settings: Human immunodeficiency virus 1, PBMC; read-out: IC50 against HIV-1 RF
Property: IC50

1. C=C1CN(S(=O)(=O)c2ccc(C)cc2)CCCN(Cc2ccccc2)CCCN(S(=O)(=O)c2ccc(C)cc2)C1 [CADA]
1.9 µM

Just for reference, patent US20040220164A1 is where these values come from.
